From: patent US20260053932A1

tested on: androgen receptor (AR) in LNCaP and/or VCaP cells; assay: Androgen Receptor ELISA assay (AR degradation); type: cell-based; conditions: LNCaP and/or VCaP cells; 5 hours incubation; media with R1881; read-out: DC50 Code* (degradation of AR ELISA)
Assignment: determine reported DC50 for the given compounds.

Some solved cases for reference:
COc1cc(O[C@H]2CC[C@@H](NC(=O)c3cnc(N4CCC(CN(C(C)C)[C@H]5C[C@H](Oc6ccc7c(c6)C(=O)N(C6CCC(=O)NC6=O)C7=O)C5)CC4)cn3)C2)ccc1C#N (stereo partly drawn) [Compound 6] = > 100 nM
CC(C)Oc1cc(O[C@H]2C[C@H](N(CC3CCN(c4cnc(C(=O)N[C@H]5CC[C@H](Oc6ccc(C#N)c(Cl)c6)CC5)cn4)CC3)C(C)C)C2)cc2c1C(=O)N(C1CCC(=O)NC1=O)C2=O (stereo partly drawn) [Compound 44] = < 1 nM

# evaluate next
Item N#Cc1ccc(O[C@H]2CC[C@H](NC(=O)c3cnc(N4CCC(CN(C5CCOCC5)[C@H]5C[C@H](Oc6ccc7c(c6)C(=O)N(C6CCC(=O)NC6=O)C7=O)C5)CC4)cn3)CC2)cc1Cl (stereo partly drawn) [Compound 30] was tested on androgen receptor (AR) in LNCaP and/or VCaP cells; the reported DC50 is < 1 nM

----------
tested on: androgen receptor (AR) in LNCaP and/or VCaP cells; experiment: Androgen Receptor ELISA assay (AR degradation); type: cell-based; details: LNCaP and/or VCaP cells; 5 hours incubation; media with R1881; read-out: DC50 Code* (degradation of AR ELISA)
attribute-measured: DC50

CCN(CC1CCN(c2cnc(C(=O)N[C@H]3CC[C@H](Oc4ccc(C#N)c(Cl)c4)CC3)cn2)CC1)[C@H]1C[C@H](Oc2ccc3c(c2)C(=O)N(C2CCC(=O)NC2=O)C3=O)C1 (stereo partly drawn) [Compound 28] = < 1 nM
COc1cc(O[C@H]2CC[C@H](NC(=O)c3cnc(N4CCC(CN(C(C)C)[C@H]5CC[C@H](Oc6ccc7c(c6)CN(C6CCC(=O)NC6=O)C7=O)CC5)CC4)cn3)CC2)ccc1C#N (stereo partly drawn) [Compound 19] = < 1 nM

# evaluate next
# DC50 of CCOc1cc(O[C@H]2CC[C@H](NC(=O)c3cnc(N4CC(CN(C(C)C)[C@H]5C[C@H](Oc6ccc7c(c6)C(=O)N(C6CCC(=O)NC6=O)C7=O)C5)C4)nc3)CC2)ccc1C#N (stereo partly drawn) [Compound 70] = 1 to 10 nM

----------
Test system: androgen receptor (AR) in LNCaP and/or VCaP cells
Assay: Androgen Receptor ELISA assay (AR degradation)
Format: cell-based
Conditions: LNCaP and/or VCaP cells; 5 hours incubation; media with R1881; read-out: DC50 Code* (degradation of AR ELISA)
Method: Androgen Receptor ELISA Assay. […] The protocols used with VCaP cells are described below. The cells were grown for a minimum of 3 days. […] Data was analyzed and plotted using GraphPad Prism software. […]
attribute-measured: DC50

Some solved cases for reference:
COc1cc(O[C@H]2C[C@H](N(CC3CCN(c4cnc(C(=O)N[C@H]5CC[C@H](Oc6ccc(C#N)c(C)c6)CC5)cn4)CC3)C(C)C)C2)cc2c1C(=O)N(C1CCC(=O)NC1=O)C2=O (stereo partly shown) [Compound 78] = < 1 nM
COc1cc(O[C@H]2CC[C@H](NC(=O)c3cnc(N4CCC(CN(C(C)=O)[C@H]5C[C@H](Oc6ccc7c(c6)C(=O)N(C6CCC(=O)NC6=O)C7=O)C5)CC4)cn3)CC2)ccc1C#N (stereo partly shown) [Compound 29] = < 1 nM

Please look at the items below and tell me DC50 for each one, in order.
1. N#Cc1ccc(O[C@H]2CC[C@H](NC(=O)c3ccc(N4CCC(CN5CCN(c6ccc7c(c6F)C(=O)N(C6CCC(=O)NC6=O)C7=O)CC5)CC4)nn3)CC2)cc1Cl (stereo partly shown) [Compound 49]
2. COc1cc(O[C@H]2CC[C@H](NC(=O)c3cnc(N4CC(CN(C(C)C)[C@H]5C[C@H](Oc6ccc7c(c6)C(=O)N(C6CCC(=O)NC6=O)C7=O)C5)C4)cn3)CC2)ccc1C#N (stereo partly shown) [Compound 20]
3. CC(C)N(CC1CCN(c2ccc(C(=O)N[C@H]3CC[C@H](Oc4ccc(C#N)c(Cl)c4)CC3)nn2)CC1)[C@H]1CC[C@H](Oc2ccc3c(c2)C(=O)N(C2CCC(=O)NC2=O)C3=O)CC1 (stereo partly shown) [Compound 47]

1: < 1 nM; 2: < 1 nM; 3: < 1 nM

Please look at the items below and tell me DC50 for each one, in order.
1. Cc1cc(O[C@H]2CC[C@H](NC(=O)c3cnc(N4CCC(CN(C(C)C)[C@H]5C[C@H](Oc6ccc7c(c6)C(=O)N(C6CCC(=O)NC6=O)C7=O)C5)CC4)cn3)CC2)cc(C)c1C#N (stereo partly shown) [Compound 25]
2. COc1cc(O[C@H]2CC[C@H](NC(=O)c3cnc(N4CC5(CC(CN(C(C)C)[C@H]6C[C@H](Oc7ccc8c(c7)C(=O)N(C7CCC(=O)NC7=O)C8=O)C6)C5)C4)nc3)CC2)ccc1C#N (stereo partly shown) [Compound 36]
3. COc1cc(O[C@H]2CC[C@H](NC(=O)c3cnc(N4CCC(CN(C(C)C)[C@H]5C[C@H](Oc6ccc7c(c6)C(=O)N(C6CCC(=O)NC6=O)C7)C5)CC4)nc3)CC2)ccc1C#N (stereo partly shown) [Compound 63]
4. COc1cc(O[C@H]2CC[C@H](NC(=O)c3cnc(N4CC(CN(C(C)C)[C@H]5C[C@H](Oc6ccc7c(c6)C(=O)N(C6CCC(=O)NC6=O)C7=O)C5)C4)nc3)CC2)ccc1C#N (stereo partly shown) [Compound 57]
5. CC(C)N(CC1CCN(c2cnc(C(=O)N[C@H]3CC[C@H](Oc4ccc(C#N)c(Cl)c4)CC3)cn2)CC1)[C@H]1C[C@H](Oc2ccc3c(c2F)C(=O)N(C2CCC(=O)NC2=O)C3=O)C1 (stereo partly shown) [Compound 52]

1. < 1 nM
2. < 1 nM
3. < 1 nM
4. < 1 nM
5. < 1 nM
